protocol-notes: chemical genetic growth profiling, strain panel (AID 1159580);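 further: tested at 20 µM; growth read once vehicle control cultures reached saturation at 30 °C; 1 = growth at the plate median or of vehicle wells; lower values mean less growth of the strain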
cond: S. cerevisiae deletion strains, growth OD, locus YCL011C, strain gbp2
About 2,000 (36%) of roughly 5,500 compounds were called active. Another 18% or so got no clear call; they are omitted. No stated cut-off is given here; in the data, active means normalized growth mostly below about 0.91 (no sharp cut-off); inconclusive means no clear call, values can overlap the other calls; inactive means mostly above about 0.92. This is one part of the list.
Result category, one only: active, inactive

Record lookup: outcome of this test for O=C(O)c1cc2ccccc2[nH]1 ?
inactive

Again, but for C[C@]12CCC(=O)C=C1CCC1C2CC[C@@]2(C)C1CC[C@@H]2O (stereo partly drawn)
inactive

====

protocol-notes: chemical genetic growth profiling, strain panel (AID 1159580);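 further: tested at 20 µM; growth read once vehicle control cultures reached saturation at 30 °C; 1 = growth at the plate median or of vehicle wells; lower values mean less growth of the strain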
cond: S. cerevisiae deletion strains, growth OD, locus YIL066C, strain RNR3, hits give low values
The whole screen tested about 5,500 compounds, of which about 2,000 (36%) were called active. Not shown: some 18% with an inconclusive outcome. Some of the results follow.
quantity-kind: normalized growth

# count of solved cases: 5
compound	normalized growth
CC(C(=O)O)c1ccc(-c2ccccc2)c(F)c1 (configuration not stated)	0.981 (inactive)
CCOC(=O)c1c(C)cc(O)c(C)c1O	0.999 (inactive)
COc1ccc(OC)c(C(O)C(C)N)c1 (configuration not stated)	1.01 (inactive)
CC1(C)C(C=C(Cl)Cl)C1C(=O)OC(C#N)c1cccc(Oc2ccccc2)c1 (configuration not stated)	0.98 (inactive)
COc1ccc2cc([C@H](C)CO)ccc2c1	0.969 (inactive)

Provide the reported normalized growth of each entry below, same order.
1. CC1/C(=N\O)C[C@@H]2C[C@H]1C2(C)C (some centres not stated)
2. COc1ccc2c(c1)O[C@@H]1COc3cc(OC)c(OC)cc3[C@@H]1C2=O
3. CC(=O)[C@H]1CCC2C3CCC4=CC(=O)CC[C@]4(C)C3CC[C@@]21C (some centres not stated)
4. Cc1cc(O)c(C=O)c(O)c1C(=O)O

1. 1.01 (inactive)
2. 0.675 (active)
3. 0.902 (inactive)
4. 1.05 (inactive)

Source of measurements: PubChem BioAssay AID1159580
